# TESTED SYSTEM: TDP-43 (Homo sapiens, UniProt Q13148 1-414)
# Sequence (Q13148 whole entry): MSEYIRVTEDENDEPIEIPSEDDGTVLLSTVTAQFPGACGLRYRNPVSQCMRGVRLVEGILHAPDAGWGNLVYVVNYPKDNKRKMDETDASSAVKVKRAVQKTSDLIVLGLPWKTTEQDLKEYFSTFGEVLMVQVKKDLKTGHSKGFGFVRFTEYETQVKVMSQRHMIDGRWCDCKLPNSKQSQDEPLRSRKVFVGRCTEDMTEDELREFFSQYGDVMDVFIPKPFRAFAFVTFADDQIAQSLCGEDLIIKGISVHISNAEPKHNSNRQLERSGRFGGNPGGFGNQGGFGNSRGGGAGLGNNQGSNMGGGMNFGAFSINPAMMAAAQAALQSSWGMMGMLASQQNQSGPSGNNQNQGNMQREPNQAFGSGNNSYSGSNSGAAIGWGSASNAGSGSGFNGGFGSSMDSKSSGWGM
# TEST DETAILS: RNA Bind-n-Seq with designed 260-mer pool; 25 mM Tris-HCl, 150 mM KCl, 3 mM MgCl2, BSA (printed 500 mg/mL), 20 units/mL SUPERase IN; pH not stated; 500 nM RNA pool, 1 h, 4 C; TDP-43 5, 50, 500 nM; high values mean tight binding
# SETTINGS: protein: recombinant; tags: SBP (GST cleaved off with PreScission; pGEX-GST-SBP)
Whole data set: some 9,900 sequences, median “r (bound/input frequency ratio)” near 0.7, cut for the highest 2% near 6.5. The entries come from a sample that favours the highest values as a whole.
PROPERTY LABEL: binding signal

ENSMUSG00000061578.1448|Ksr2 (ssRNA) RNA: GGGAGUUCUACAGUCCGACGAUCGCUUCGAUAUCCGCAUGCUAUAGGUAGGUAUAUAAAUGGAUGGAUGGGUGAUGGAUGGGUAAAUGAAUGGAUAGGUAUGUGAAUGAAUGGAUGAUGGAUGAAUGGAUGGGUAGGUGGGUAGAUAGGUAUAUGAAUGAAUGGAUGAAUGGAUGGGUGAAUGGAUGGAUAGGUAUGUGAAUAAAUGGAUGGAUGGAUGGAUUGAUUUGUGAAUGAAUGGAUGAAUGGAUGGGUAGGUGGGUGGAUGCAUAGGCAAGUAGAUGAAUGAAUAUGUGGGUAGAAGCUCUUGCGGUCGCACUAGUGUGGAAUUCUCGGGUGUCAAGG | 6.14 R (bound/input frequency ratio)
ENSMUSG00000061578.1450|Ksr2 (ssRNA) RNA: GGGAGUUCUACAGUCCGACGAUCGCUUCGAUAUCCGCAUGCUAUAAAUGGAUGGAUGGGUGAUGGAUGGGUAAAUGAAUGGAUAGGUAUGUGAAUGAAUGGAUGAUGGAUGAAUGGAUGGGUAGGUGGGUAGAUAGGUAUAUGAAUGAAUGGAUGAAUGGAUGGGUGAAUGGAUGGAUAGGUAUGUGAAUAAAUGGAUGGAUGGAUGGAUUGAUUUGUGAAUGAAUGGAUGAAUGGAUGGGUAGGUGGGUGGAUGCAUAGGCAAGUAGAUGAAUGAAUAUGUGGGUAGAAGGGUGAGUGGGUGCUCUUGCGGUCGCACUAGUGUGGAAUUCUCGGGUGUCAAGG | 4.15 R (bound/input frequency ratio)
ENSMUSG00000061578.1439|Ksr2 (ssRNA) RNA: GGGAGUUCUACAGUCCGACGAUCGCUUCGAUAUCCGCAUGCUAUUGAUUUAGAUGCCAAUCAGGAAGGCAAGUAGGAUGGAUGGAUGAGUGAGUGGAUAGGUAGGUAUAUAAAUGGAUGGAUGGGUGAUGGAUGGGUAAAUGAAUGGAUAGGUAUGUGAAUGAAUGGAUGAUGGAUGAAUGGAUGGGUAGGUGGGUAGAUAGGUAUAUGAAUGAAUGGAUGAAUGGAUGGGUGAAUGGAUGGAUAGGUAUGUGAAUAAAUGGAUGGAUGGAUGGAUUGAUUUGUGAAUGAAUGGAUGAAUGGACUCUUGCGGUCGCACUAGUGUGGAAUUCUCGGGUGUCAAGG | 6.02 R (bound/input frequency ratio)
ENSMUSG00000061578.1440|Ksr2 (ssRNA) RNA: GGGAGUUCUACAGUCCGACGAUCGCUUCGAUAUCCGCAUGCUAUAGAUGCCAAUCAGGAAGGCAAGUAGGAUGGAUGGAUGAGUGAGUGGAUAGGUAGGUAUAUAAAUGGAUGGAUGGGUGAUGGAUGGGUAAAUGAAUGGAUAGGUAUGUGAAUGAAUGGAUGAUGGAUGAAUGGAUGGGUAGGUGGGUAGAUAGGUAUAUGAAUGAAUGGAUGAAUGGAUGGGUGAAUGGAUGGAUAGGUAUGUGAAUAAAUGGAUGGAUGGAUGGAUUGAUUUGUGAAUGAAUGGAUGAAUGGAUGGGUACUCUUGCGGUCGCACUAGUGUGGAAUUCUCGGGUGUCAAGG | 11.5 R (bound/input frequency ratio)

Attribution: paper PMC12864922
